- System tested: Hypoxia-inducible factor 1-alpha (Homo sapiens, UniProt Q16665)
- Sequence (Q16665 whole entry): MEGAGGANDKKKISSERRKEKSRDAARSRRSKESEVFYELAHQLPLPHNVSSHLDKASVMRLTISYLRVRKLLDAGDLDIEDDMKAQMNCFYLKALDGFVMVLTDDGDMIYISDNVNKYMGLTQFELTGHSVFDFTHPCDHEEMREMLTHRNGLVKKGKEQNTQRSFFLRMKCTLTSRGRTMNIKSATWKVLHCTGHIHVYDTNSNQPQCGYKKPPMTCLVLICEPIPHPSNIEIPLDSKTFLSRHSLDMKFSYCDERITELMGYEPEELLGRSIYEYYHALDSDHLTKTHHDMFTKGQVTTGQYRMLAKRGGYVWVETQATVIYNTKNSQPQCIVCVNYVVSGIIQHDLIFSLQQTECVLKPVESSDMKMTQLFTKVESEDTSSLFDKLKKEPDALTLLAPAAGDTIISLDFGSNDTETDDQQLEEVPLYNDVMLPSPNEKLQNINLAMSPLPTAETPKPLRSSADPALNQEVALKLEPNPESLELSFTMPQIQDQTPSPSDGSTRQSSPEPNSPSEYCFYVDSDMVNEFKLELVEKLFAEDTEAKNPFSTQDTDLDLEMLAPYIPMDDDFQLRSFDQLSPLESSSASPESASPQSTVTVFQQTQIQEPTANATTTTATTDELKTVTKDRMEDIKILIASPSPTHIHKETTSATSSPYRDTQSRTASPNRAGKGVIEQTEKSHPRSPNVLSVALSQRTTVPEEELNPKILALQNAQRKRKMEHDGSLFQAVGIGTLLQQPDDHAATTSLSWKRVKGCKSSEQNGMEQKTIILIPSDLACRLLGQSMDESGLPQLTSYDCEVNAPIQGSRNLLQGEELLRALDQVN
- Assay details: Binding affinity to HIF-1alpha (unknown origin) assessed as dissociation constant
pKd: −log10 of the molar value.
Observed property: pKd

// pKd value for Ac-EELLRALDQV-OH : < 5.00

Reference source for all entries: ChEMBL document CHEMBL5634207
